# ASSAYED TARGET: c-Met (baculovirus expressed human c-Met kinase domain P948-S1343) (Homo sapiens)
# Construct: human c-Met kinase domain P948-S1343; host or cells: baculovirus expression
# Sequence (P08581 1011-1343 limits assumed): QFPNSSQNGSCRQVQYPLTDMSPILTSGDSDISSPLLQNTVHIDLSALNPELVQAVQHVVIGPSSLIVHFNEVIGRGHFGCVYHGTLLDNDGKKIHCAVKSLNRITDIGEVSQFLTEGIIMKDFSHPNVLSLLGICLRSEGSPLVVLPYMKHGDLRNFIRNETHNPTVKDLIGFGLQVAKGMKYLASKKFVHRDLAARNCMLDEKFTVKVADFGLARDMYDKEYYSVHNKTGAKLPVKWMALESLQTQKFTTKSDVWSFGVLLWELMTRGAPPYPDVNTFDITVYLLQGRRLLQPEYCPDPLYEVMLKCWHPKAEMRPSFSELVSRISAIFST
# MEASUREMENT PROTOCOL: c-Met Luciferase-Coupled Chemiluminescent Kinase assay (LCCA);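 further: kinase activity read as percent ATP left after reaction, by luciferase-luciferin chemiluminescence, with 1 µM ATP and 1 µM poly-EY substrate, 2 h at ambient temperature, 10-point dose-response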
# Format: biochemical
pIC50: −log10 of the molar value.
Items are presented alongside their recorded pIC50.
ASSAY METRIC: pIC50

[[record]]
structure_string = "COc1cc2c(Oc3ccc(NC(=O)C(=O)N4CCC(Cc5ccccc5)CC4)cc3F)ccnc2cc1OCC1CCNCC1"
assay_metric = "pIC50"
value = "> 7.30"

[[record]]
structure_string = "CCNC(=O)C(=O)Nc1ccc(Oc2ccnc3cc(OCC4CCNCC4)c(OC)cc23)c(F)c1"
assay_metric = "pIC50"
value = "> 7.30"

[[record]]
structure_string = "COc1cc2c(Oc3ccc(NC(=O)[C@]4(C(=O)Nc5ccc(F)cc5)C[C@H]4C)cc3F)ccnc2cc1OCCCN1CCOCC1"
assay_metric = "pIC50"
value = "> 7.30"

[[record]]
structure_string = "COCCNC(=O)C(=O)Nc1ccc(Oc2ccnc3cc(OCC4CCNCC4)c(OC)cc23)c(F)c1"
assay_metric = "pIC50"
value = "6.30 to 7.30"


====

Items are presented alongside their recorded IC50.
# ASSAYED TARGET: KDR (baculovirus expressed human KDR kinase domain D807-V1356) (Homo sapiens, UniProt P35968);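 further: Luciferase-coupled chemiluminescent kinase assay, activity read as percent ATP left after 4 h reaction at ambient temperature, ATP near KM, 10-point dose-response in 384-well plates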
# Construct: human KDR kinase domain D807-V1356; host or cells: baculovirus expression
# Sequence (P35968 807-1356): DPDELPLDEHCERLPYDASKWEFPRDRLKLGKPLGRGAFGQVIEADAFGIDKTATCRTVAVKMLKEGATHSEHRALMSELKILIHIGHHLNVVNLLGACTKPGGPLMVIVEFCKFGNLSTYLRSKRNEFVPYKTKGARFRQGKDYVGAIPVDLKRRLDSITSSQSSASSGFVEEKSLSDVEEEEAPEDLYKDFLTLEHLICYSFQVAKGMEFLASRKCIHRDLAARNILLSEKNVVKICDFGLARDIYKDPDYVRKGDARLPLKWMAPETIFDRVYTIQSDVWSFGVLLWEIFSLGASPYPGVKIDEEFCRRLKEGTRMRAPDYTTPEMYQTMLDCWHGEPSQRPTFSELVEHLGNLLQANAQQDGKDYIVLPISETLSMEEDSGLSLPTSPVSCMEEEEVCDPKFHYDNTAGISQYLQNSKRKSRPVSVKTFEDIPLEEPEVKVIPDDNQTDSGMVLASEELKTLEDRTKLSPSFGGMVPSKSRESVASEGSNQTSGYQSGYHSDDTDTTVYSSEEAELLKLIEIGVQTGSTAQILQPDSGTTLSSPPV
# MEASUREMENT PROTOCOL: biochemical
ASSAY METRIC: IC50

[[record]]
compound = "COc1cc2ncnc(Oc3ccc(NC(=O)C4(C(=O)Nc5ccc(F)cc5)CC4)cc3F)c2cc1OCCCN1CCOCC1 [Example 321]"
value = "< 50 nM"

[[record]]
compound = "COc1cc2c(Oc3ncc(NC(=O)C4(C(=O)Nc5ccc(F)cc5)CC4)cc3Cl)ccnc2cc1OCc1ccccc1 [Example 309]"
value = "500 to 5000 nM"

[[record]]
compound = "COc1cc2c(Oc3ccc(NC(=O)C4(C(=O)Nc5ccc(F)cc5)CC4)cc3F)ccnc2cc1OCCCN1CCCCC1 [Example 313]"
value = "< 50 nM"

[[record]]
compound = "COc1cc2c(Oc3ccc(NC(=O)[C@]4(C(=O)Nc5ccc(F)cc5)C[C@H]4C)cc3F)ncnc2cc1OCCCN1CCN(C)CC1 [Example 387]"
value = "< 50 nM"

[[record]]
compound = "COc1cc2c(Oc3ccc(NC(=O)C(=O)N4CCCC4)cc3F)ccnc2cc1OCC1CCNCC1 [Example 299]"
value = "50 to 500 nM"

[[record]]
compound = "COc1cc2nccc(Oc3nc(C)c(NC(=O)C4(C(=O)Nc5ccc(F)cc5)CC4)cc3Cl)c2cc1OC [Example 320]"
value = "500 to 5000 nM"

[[record]]
compound = "COc1cc2nccc(Oc3ncc(NC(=O)CC(=O)Nc4cccc(F)c4)cc3Cl)c2cc1OC [Example 290]"
value = "500 to 5000 nM"

[[record]]
compound = "CCN(CC)CCCOc1cc2nccc(Oc3ccc(NC(=O)[C@@]4(C(=O)Nc5ccc(F)cc5)[C@H](C)[C@@H]4C)cc3F)c2cc1OC [Example 374]"
value = "50 to 500 nM"

[[record]]
compound = "CCN(CC)CCCOc1cc2nccc(Oc3ccc(NC(=O)C4(C(=O)Nc5ccc(F)cc5)CC4(C)C)cc3F)c2cc1OC (centres unmarked) [Example 372]"
value = "< 50 nM"

[[record]]
compound = "COc1cc2c(Oc3ccc(NC(=O)C4(C(=O)Nc5ccc(F)cc5)CCC4)cc3F)ccnc2cc1OCCCN1CCN(C)CC1 [Example 385]"
value = "< 50 nM"

[[record]]
compound = "CO/N=C(\\C)C(=O)Nc1ccc(Oc2ccnc3cc(OC)c(OC)cc23)cc1 [Example 108]"
value = "50 to 500 nM"

[[record]]
compound = "COc1cc2nccc(Oc3ccc(NC(=O)C4(C(=O)Nc5cccc(CN6CCCCC6)c5)CC4)cc3)c2cc1OC [Example 400]"
value = "< 50 nM"

[[record]]
compound = "COc1cc2c(Oc3ccc(NC(=O)C4(C(=O)Nc5ccc(F)cc5)CC4)cc3F)ccnc2cc1OCCCN1CCN(C(=O)OC(C)(C)C)CC1 [Example 346]"
value = "< 50 nM"

[[record]]
compound = "COc1cc2nccc(Oc3ccc(NC(=O)C4(C(=O)Nc5ccccc5)CC4)cc3)c2cc1OC [Example 398]"
value = "< 50 nM"

